Taken from patent US20260035456A1.

TARGET DESC: T1, biotin-labeled mouse ADM (mouse, not fully specified; biotin label (named mouse ADM-C-biotin in Example 1.4; position of the biotin not stated for the other lots))
T1 construct: Synthetic peptide; also called mouse ADM-C-biotin; mADM-Biotin
T1 peptide: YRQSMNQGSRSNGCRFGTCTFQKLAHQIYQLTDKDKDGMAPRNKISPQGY
TEST SUMMARY: BLI (Octet RED96e), as in Example 3
Give measured Response value for each item. Keep answers brief.

List reported Response value for each of these binders:
1. Ab2004.Am39 (IgG1 antibody) (antibody, V domains shown, Expressed in CHO cells, human IgG1/kappa) VH: QVQLVQSGAEVKKPGASVKVSCKASGYTFTHYGIAWVRQAPGQGLEWMGWISAYQGNTNYAQKLQGRVTMTRDTSTSTAYMELRSLRSDDTAVYYCAREGRWGGSFNIWGQGTMVTVSS VL: DIQMTQSPSSLSASVGDRVTITCRASQGISSYLAWYQQKPGKAPKLLIYDASNLETGVPSRFSGSGSGTDFTFTISSLQPEDIATYYCQQYDDLDLTFGGGTKVEIKR
2. Ab2004.Am38 (IgG1 antibody) (antibody, V domains shown, Expressed in CHO cells, human IgG1/kappa) VH: QVQLVQSGAEVKKPGASVKVSCKASGYTFTSYGISWVRQAPGQGLEWMGWISPYTGKTNYAQKLQGRVTMTRDTSTSTAYMELRSLRSDDTAVYYCAREGRWGGSFNIWGQGTMVTVSS VL: DIQMTQSPSSLSASVGDRVTITCRASQGISSYLAWYQQKPGKAPKLLIYDTSDLDTGVPSRFSGSGSGTDFTFTISSLQPEDIATYYCQQYDNLPLTFGGGTKVEIKR
3. Enibarcimab (antibody, V domains shown) VH: QVQLVQSGAEVKKPGSSVKVSCKASGYTFSRYWIEWVRQAPGQGLEWIGEILPGSGSTNYNQKFQGRVTITADTSTSTAYMELSSLRSEDTAVYYCTEGYEYDGFDYWGQGTTVTVSS VL: DVVLTQSPLSLPVTLGQPASISCRSSQSIVYSNGNTYLEWYLQRPGQSPRLLIYRVSNRFSGVPDRFSGSGSGTDFTLKISRVEAEDVGVYYCFQGSHIPYTFGGGTKLEIKR
4. Ab2004.Am33 (IgG1 antibody) (antibody, V domains shown, Expressed in CHO cells, human IgG1/kappa) VH: QVQLVQSGAEVKKPGASVKVSCKASGYTFTSYGISWVRQAPGQGLEWMGWISPYSGNTNYAQKLQGRVTMTRDTSTSTAYMELRSLRSDDTAVYYCAREGRWGGSFNIWGQGTMVTVSS VL: DIQMTQSPSSLSASVGDRVTITCRASEGISEYLAWYQQKPGKAPKLLIYDASNLETGVPSRFSGSGSGTDFTFTISSLQPEDIATYYCQQYDNLPLTFGGGTKVEIKR
5. fully human antibody Ab2004.Am01 (expressed antibody) (antibody, V domains shown, also called parent antibody Ab2004.Am01) VH: QVQLVQSGAEVKKPGASVKVSCKASGYTFTSYGISWVRQAPGQGLEWMGWISAYQGNTNYAQKLQGRVTMTRDTSTSTAYMELRSLRSDDTAVYYCAREGRWGGSFNIWGQGTMVTVSS VL: DIQMTQSPSSLSASVGDRVTITCRASQGISSYLAWYQQKPGKAPKLLIYDASNLETGVPSRFSGSGSGTDFTFTISSLQPEDIATYYCQQYDNLPLTFGGGTKVEIK

// result
1. 2.7
2. 2.88
3. 2.75
4. 2.8
5. 2.35
